# System: UACC-257
# protocol_description: NCI-60 screen (SRB), melanoma
# test_context: Homo sapiens, UACC-257
IC50 overview
Write the figure, then the unit, nothing else.

These solved cases illustrate the format of a correct answer.
COc1cc(OC)c(S(N)(=O)=O)cc1C(=O)/C=C/c1ccc(C)cc1 [Compound 17c] : 3.86 µM
COc1cc(OC)c(S(=O)(=O)N(CCCl)CCCl)cc1C(=O)/C=C/c1cc(OC)c(OC)c(OC)c1 [Compound 18e] : 3.89 µM
COc1cc(OC)c(S(N)(=O)=O)cc1C(=O)/C=C/c1ccc(Cl)cc1 [Compound 17b] : 5.46 µM

Turning now to a further compound:
Enquiry: Which IC50 is listed for COc1cc(OC)c(S(N)(=O)=O)cc1C(=O)C=Cc1ccccc1 [Compound 17a] ?
Return: 9.96 µM
